target: Neuromedin-K receptor (Rattus norvegicus, UniProt P16177); assay: In vitro agonistic activity against tachykinin receptor 3 of everted rat protal vein.; assay type: functional
Sequence (P16177 whole entry): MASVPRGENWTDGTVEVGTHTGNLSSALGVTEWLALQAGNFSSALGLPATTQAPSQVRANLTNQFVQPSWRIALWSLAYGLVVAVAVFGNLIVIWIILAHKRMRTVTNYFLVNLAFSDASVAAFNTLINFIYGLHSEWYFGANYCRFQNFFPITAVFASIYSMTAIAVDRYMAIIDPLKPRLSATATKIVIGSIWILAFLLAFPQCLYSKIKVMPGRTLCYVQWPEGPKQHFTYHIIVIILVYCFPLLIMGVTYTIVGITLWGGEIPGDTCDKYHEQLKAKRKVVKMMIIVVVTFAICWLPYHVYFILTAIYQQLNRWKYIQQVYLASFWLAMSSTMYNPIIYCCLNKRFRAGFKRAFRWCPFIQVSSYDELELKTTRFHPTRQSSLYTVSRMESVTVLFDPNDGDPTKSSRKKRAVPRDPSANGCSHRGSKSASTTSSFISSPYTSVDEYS
value-type: EC50 (nM)
Numbers only, in nM.

Give reported EC50 value for H-KDSFFGLM-NH2
857

---

target: Neuromedin-K receptor (Rattus norvegicus); experiment: In vitro agonistic activity against tachykinin receptor 3 of everted rat protal vein.; type: functional
value-type: EC50

Example results:
Give reported EC50 value for CSCC[C@H](NC(=O)[C@H](CC(C)C)NC(=O)[C@H]1CCCN1C(=O)[C@H](Cc1ccccc1)NC(=O)[C@H](Cc1ccccc1)NC(=O)CCCCN)C(N)=O
> 30 µM

Give reported EC50 value for CSCC[C@H](NC(=O)[C@H](CC(C)C)N1CC[C@@H](NC(=O)[C@@H](NC(=O)[C@H](Cc2ccccc2)NC(=O)[C@H](CO)NC(=O)[C@H](CC(=O)O)NC(=O)[C@@H](N)CCCCN)C(C)C)C1=O)C(N)=O
1.18 µM

Give reported EC50 value for CSCC[C@H](NC(=O)[C@@H](CC(C)C)N1C[C@H]2CCN(C(=O)[C@H](Cc3ccccc3)NC(=O)[C@H](Cc3ccccc3)NC(=O)CCCCN)[C@H]2C1=O)C(N)=O
> 47 µM

Give EC50 for each of the items listed below.
1. CSCC[C@H](NC(=O)[C@H](CC(C)C)NC(=O)CNC(=O)[C@H](Cc1ccccc1)NC(=O)[C@H](Cc1ccccc1)NC(=O)[C@H](CCC(N)=O)NC(=O)[C@H](CCC(N)=O)NC(=O)[C@@H]1CCCN1C(=O)[C@H](CCCCN)NC(=O)[C@@H]1CCCN1C(=O)[C@@H](N)CCCN=C(N)N)C(N)=O
2. CSCC[C@H](NC(=O)[C@H](CC(C)C)NC(=O)[C@@H]1CCCN1C(=O)[C@H](Cc1ccccc1)NC(=O)[C@H](Cc1ccccc1)NC(=O)CCCCN)C(N)=O
3. CSCC[C@H](NC(=O)[C@H](CC(C)C)N1C[C@@H]2CCN(C(=O)[C@H](Cc3ccccc3)NC(=O)[C@H](Cc3ccccc3)NC(=O)CCCCN)[C@@H]2C1=O)C(N)=O
4. CSCC[C@H](NC(=O)[C@@H](CC(C)C)N1C[C@@H]2CCN(C(=O)[C@H](Cc3ccccc3)NC(=O)[C@H](Cc3ccccc3)NC(=O)CCCCN)[C@@H]2C1=O)C(N)=O

1: 7.5 µM; 2: > 10 µM; 3: > 8.21 µM; 4: > 30 µM
